Assignment: determine reported fold change of affinity for the given binders.
target: T1, Human CD137 ECD (human); assay: single mutant vs template dBBDu183H
T1 construct: also called 4-1BB
T1 sequence (chain, as listed by the source limits assumed): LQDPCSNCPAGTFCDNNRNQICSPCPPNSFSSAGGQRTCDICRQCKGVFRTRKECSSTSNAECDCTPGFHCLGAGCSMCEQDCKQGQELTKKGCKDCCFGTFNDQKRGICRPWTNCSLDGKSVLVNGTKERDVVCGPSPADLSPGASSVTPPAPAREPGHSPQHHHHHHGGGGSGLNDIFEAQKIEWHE
Hey, just the number and the unit after it is fine.

# Binder, Test result
records = [
    ("H183/L072 VH Y58G (antibody, name in Kabat numbering, V domains shown) VH: QVQLVESGGGLVQPGRSLRLSCAASGFTFSNAWMHWVRQAPGKGLEWVAQIKDKGNAYAAGYAPSVKGRFTISRDDSKNSIYLQMNSLKTEDTAVYYCHYVHYASASTVLPAFGVDAWGQGTTVTVSS VL: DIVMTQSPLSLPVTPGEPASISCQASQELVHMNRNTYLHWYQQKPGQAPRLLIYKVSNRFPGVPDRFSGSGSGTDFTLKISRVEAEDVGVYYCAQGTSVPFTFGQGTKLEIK", "0.2 fold"),
    ("H183/L072 VH K52M (antibody, name in Kabat numbering, V domains shown) VH: QVQLVESGGGLVQPGRSLRLSCAASGFTFSNAWMHWVRQAPGKGLEWVAQIMDKGNAYAAYYAPSVKGRFTISRDDSKNSIYLQMNSLKTEDTAVYYCHYVHYASASTVLPAFGVDAWGQGTTVTVSS VL: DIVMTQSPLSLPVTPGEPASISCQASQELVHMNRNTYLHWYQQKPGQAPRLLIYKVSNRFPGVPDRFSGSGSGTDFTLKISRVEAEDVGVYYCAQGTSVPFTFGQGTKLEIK", "0.3 fold"),
    ("H183/L072 VH I51T (antibody, name in Kabat numbering, V domains shown) VH: QVQLVESGGGLVQPGRSLRLSCAASGFTFSNAWMHWVRQAPGKGLEWVAQTKDKGNAYAAYYAPSVKGRFTISRDDSKNSIYLQMNSLKTEDTAVYYCHYVHYASASTVLPAFGVDAWGQGTTVTVSS VL: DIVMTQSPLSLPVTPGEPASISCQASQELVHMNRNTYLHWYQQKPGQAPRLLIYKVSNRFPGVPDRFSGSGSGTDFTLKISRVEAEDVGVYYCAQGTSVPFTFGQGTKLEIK", "0.3 fold"),
]

Please examine the following record next.
**Query** I am curious: what fold change of affinity value has been reported for H183/L072 VH A98I (antibody, name in Kabat numbering, V domains shown) VH: QVQLVESGGGLVQPGRSLRLSCAASGFTFSNAWMHWVRQAPGKGLEWVAQIKDKGNAYAAYYAPSVKGRFTISRDDSKNSIYLQMNSLKTEDTAVYYCHYVHYISASTVLPAFGVDAWGQGTTVTVSS VL: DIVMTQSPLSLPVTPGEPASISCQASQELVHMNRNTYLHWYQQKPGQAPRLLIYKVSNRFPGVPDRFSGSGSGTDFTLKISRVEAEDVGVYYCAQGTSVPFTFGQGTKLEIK ?
**Result** 0 fold

FYI, the data here is from patent US20210388087A1.
